Here, each record is paired with measured selectivity ratio data.
# assay-info: Selectivity index, ratio of EC50 for human MRC5 cells to EC50 for antitrypanosomal activity against Trypanosoma brucei rhodesiense
# Type: toxicity
# condition-context: read-out: Ratio EC50

{"given-smiles": "N#Cc1cn([C@@H]2O[C@H](CO)[C@@H](F)[C@H]2O)c2ncnc(N)c12", "reported-relation": "=", "selectivity ratio": 3}
{"given-smiles": "Nc1ncnc2c1ccn2[C@@H]1O[C@H](CO)[C@H](F)[C@H]1O", "reported-relation": ">", "selectivity ratio": 10100}
{"given-smiles": "NC(=O)c1cn([C@@H]2O[C@H](CO)[C@@H](F)[C@H]2O)c2ncnc(N)c12", "reported-relation": "=", "selectivity ratio": 20}

====

# assay-info: Selectivity index, ratio of EC50 for cytotoxicity against human MRC5 cells to EC50 for antitrypanosomal activity against Trypanosoma cruzi Tulahuen CL2 infected in human MRC5 cells
# Assay type: toxicity, cell-based
# condition-context: read-out: Ratio EC50
Here, each record is paired with measured selectivity ratio data.

{"given-smiles": "CCc1cn([C@@H]2O[C@H](CO)[C@@H](F)[C@H]2O)c2ncnc(N)c12", "selectivity ratio": "< 1"}
{"given-smiles": "Nc1ncnc2c1c(-c1ccc(F)cc1)cn2[C@@H]1O[C@H](CO)[C@H](F)[C@H]1O", "selectivity ratio": "> 44"}
{"given-smiles": "Cc1cn([C@@H]2O[C@H](CO)[C@@H](F)[C@H]2O)c2ncnc(N)c12", "selectivity ratio": "> 5"}
{"given-smiles": "N#Cc1cn([C@@H]2O[C@H](CO)[C@@H](F)[C@H]2O)c2ncnc(N)c12", "selectivity ratio": "< 1"}
{"given-smiles": "Nc1ncnc2c1c(Br)cn2[C@@H]1O[C@H](CO)[C@H](F)[C@H]1O", "selectivity ratio": "< 1"}

====

# assay-info: Selectivity index, ratio of EC50 for human MRC5 cells to EC50 for antitrypanosomal activity against Trypanosoma brucei brucei
# Format: toxicity
# condition-context: read-out: Ratio EC50
Here, each record is paired with measured selectivity ratio data.
measured-endpoint: selectivity ratio

{"given-smiles": "OC[C@H]1O[C@@H](n2cc(Br)c3c(O)ncnc32)[C@H](O)[C@H]1F", "measured-endpoint": "selectivity ratio", "result": "> 4"}
{"given-smiles": "COc1ccc(-c2cn([C@@H]3O[C@H](CO)[C@@H](F)[C@H]3O)c3ncnc(N)c23)cc1", "measured-endpoint": "selectivity ratio", "result": "< 1"}
{"given-smiles": "Cc1cn([C@@H]2O[C@H](CO)[C@@H](F)[C@H]2O)c2ncnc(N)c12", "measured-endpoint": "selectivity ratio", "result": "> 67"}
{"given-smiles": "Nc1ncnc2c1c(-c1ccc(F)cc1)cn2[C@@H]1O[C@H](CO)[C@H](F)[C@H]1O", "measured-endpoint": "selectivity ratio", "result": "> 4"}
{"given-smiles": "Nc1ncnc2c1c(-c1ccccc1)cn2[C@@H]1O[C@H](CO)[C@@H](F)[C@H]1O", "measured-endpoint": "selectivity ratio", "result": "> 2"}

====

# assay-info: Selectivity index, ratio of EC50 for cytotoxicity against mouse primary macrophage to EC50 for antileishmanial activity against Leishmania infantum MHOM/MA(BE)/67 infected in mouse primary peritoneal macrophages
# Assay type: toxicity
# condition-context: read-out: Ratio EC50
Here, each record is paired with measured selectivity ratio data.

{"given-smiles": "Nc1ncnc2c1ccn2[C@@H]1O[C@H](CO)[C@@H](F)[C@H]1O", "reported-relation": ">", "selectivity ratio": 2}
{"given-smiles": "Nc1ncnc2c1c(-c1ccccc1)cn2[C@@H]1O[C@H](CO)[C@@H](F)[C@H]1O", "reported-relation": "=", "selectivity ratio": 1}
{"given-smiles": "Nc1ncnc2c1c(Br)cn2[C@@H]1O[C@H](CO)[C@H](F)[C@H]1O", "reported-relation": "=", "selectivity ratio": 2}
{"given-smiles": "C=Cc1cn([C@@H]2O[C@H](CO)[C@@H](F)[C@H]2O)c2ncnc(N)c12", "reported-relation": ">", "selectivity ratio": 1}
{"given-smiles": "Nc1nc2c(ncn2[C@@H]2O[C@H](CO)[C@@H](F)[C@H]2O)c(=O)[nH]1", "reported-relation": ">", "selectivity ratio": 1}
{"given-smiles": "Cc1cn([C@@H]2O[C@H](CO)[C@@H](F)[C@H]2O)c2ncnc(N)c12", "reported-relation": ">", "selectivity ratio": 2}
{"given-smiles": "NC(=O)c1cn([C@@H]2O[C@H](CO)[C@@H](F)[C@H]2O)c2ncnc(N)c12", "reported-relation": "=", "selectivity ratio": 1}
{"given-smiles": "COc1ccc(-c2cn([C@@H]3O[C@H](CO)[C@@H](F)[C@H]3O)c3ncnc(N)c23)cc1", "reported-relation": "=", "selectivity ratio": 1}
{"given-smiles": "Nc1ncnc2c1c(I)cn2[C@@H]1O[C@H](CO)[C@@H](F)[C@H]1O", "reported-relation": "=", "selectivity ratio": 9}

====

# assay-info: Selectivity index, ratio of EC50 for human MRC5 cells to EC50 for antitrypanosomal activity against Trypanosoma brucei rhodesiense
# Format: toxicity
# condition-context: read-out: Ratio EC50
measured-endpoint: selectivity ratio

{"given-smiles": "Nc1ncnc2c1c(-c1ccc(F)cc1)cn2[C@@H]1O[C@H](CO)[C@H](F)[C@H]1O", "result": "> 5"}
{"given-smiles": "Nc1ncnc2c1c(-c1ccccc1)cn2[C@@H]1O[C@H](CO)[C@@H](F)[C@H]1O", "result": "> 1"}
{"given-smiles": "OC[C@H]1O[C@@H](n2cc(Br)c3c(O)ncnc32)[C@H](O)[C@H]1F", "result": "> 41"}
{"given-smiles": "Cc1cn([C@@H]2O[C@H](CO)[C@@H](F)[C@H]2O)c2ncnc(N)c12", "result": "> 312"}
